Hey, just so you know, these numbers are from patent US9403829B2.

# Test: Pharmacokinetics of the metabolite produced in vivo after administration of 7.5-60 mg Compound A
# Condition Parameters: human, 60 mg, day 1 of administration of about 60 mg of Compound A
Reported Metric: Tmax

> print(dat)
                                   compound  measurement
1  CC(C)(O)c1ccc(-c2cnc3c(n2)N([C@H]2CC[C@H](O)CC2)C(=O)CN3)cn1 [O-Desmethyl metabolite]     4 to 6 h

----------
# Test: Pharmacokinetics of the metabolite produced in vivo after administration of 7.5-60 mg Compound A
# Condition Parameters: human, 30 mg, day 1 of administration of about 30 mg of Compound A
Reported Metric: Tmax

> print(dat)
                                   compound  measurement
1  CC(C)(O)c1ccc(-c2cnc3c(n2)N([C@H]2CC[C@H](O)CC2)C(=O)CN3)cn1 [O-Desmethyl metabolite]          7 h

----------
# Test: Phase 1 food effect study (Part 2), single 20-mg oral dose of Compound A tablet, fed vs fasted
# Format: in vivo, human
# Condition Parameters: male, human, plasma, po, 20 mg, Fed (n = 11, high fat meal), single 20-mg oral dose of Compound A tablet; geometric mean
Reported Metric: AUC(0-inf) (ng·h/mL)

> print(dat)
                                   compound  reported.metric  measurement
1  CC(C)(O)c1ccc(-c2cnc3c(n2)N([C@H]2CC[C@H](O)CC2)C(=O)CN3)cn1 [O-Desmethyl metabolite]       AUC(0-inf)        10100
2  CO[C@H]1CC[C@H](N2C(=O)CNc3ncc(-c4ccc(C(C)(C)O)nc4)nc32)CC1       AUC(0-inf)         1200

----------
# Test: Pharmacokinetics of the metabolite produced in vivo after administration of 7.5-60 mg Compound A
# Condition Parameters: human, 30 mg, day 1 of administration of about 30 mg of Compound A
Reported Metric: AUC(0-inf) (ng·h/mL)

> print(dat)
                                   molecule  reported.metric  unit.info  measurement
1  CC(C)(O)c1ccc(-c2cnc3c(n2)N([C@H]2CC[C@H](O)CC2)C(=O)CN3)cn1 [O-Desmethyl metabolite]       AUC(0-inf)    ng·h/mL        27700

----------
# Test: Phase 1 crossover pharmacokinetic study of tablet and capsule formulations, single oral dose
# Type: in vivo, human
# Condition Parameters: male, human; Treatment A: one 20-mg Compound A API-in-capsule, oral, fasted, n = 18; plasma; geometric mean
Reported Metric: Cmax (ng/mL)

> print(dat)
                                   molecule  reported.metric  measurement
1  CO[C@H]1CC[C@H](N2C(=O)CNc3ncc(-c4ccc(C(C)(C)O)nc4)nc32)CC1             Cmax          190
2  CC(C)(O)c1ccc(-c2cnc3c(n2)N([C@H]2CC[C@H](O)CC2)C(=O)CN3)cn1 [O-Desmethyl metabolite]             Cmax          503

----------
# Test: Phase 1 food effect study (Part 2), single 20-mg oral dose of Compound A tablet, fed vs fasted
# Type: in vivo, human
# Condition Parameters: male, human, plasma, po, 20 mg, Fasted (n = 11), single 20-mg oral dose of Compound A tablet, healthy adult males; median; read-out: Tmax
Reported Metric: Tmax (h)

> print(dat)
                                   compound  measurement
1  CC(C)(O)c1ccc(-c2cnc3c(n2)N([C@H]2CC[C@H](O)CC2)C(=O)CN3)cn1 [O-Desmethyl metabolite]            3
2  CO[C@H]1CC[C@H](N2C(=O)CNc3ncc(-c4ccc(C(C)(C)O)nc4)nc32)CC1 [Compound A]            1

----------
# Test: Pharmacokinetics of the metabolite produced in vivo after administration of 7.5-60 mg Compound A
# Condition Parameters: human, 7.5 mg, on day (number not given) of once a day administration of about 7.5 mg of Compound A
Reported Metric: Cmax (ng/mL)

> print(dat)
                                   compound  measurement
1  CC(C)(O)c1ccc(-c2cnc3c(n2)N([C@H]2CC[C@H](O)CC2)C(=O)CN3)cn1 [O-Desmethyl metabolite]          363

----------
# Test: Pharmacokinetics of the metabolite produced in vivo after administration of 7.5-60 mg Compound A
# Condition Parameters: human, 7.5 mg, day 1 of administration of about 7.5 mg of Compound A, read-out: AUC0-24
Reported Metric: AUC(0-t) (ng·h/mL)

> print(dat)
                                   compound  reported.metric  measurement
1  CC(C)(O)c1ccc(-c2cnc3c(n2)N([C@H]2CC[C@H](O)CC2)C(=O)CN3)cn1 [O-Desmethyl metabolite]         AUC(0-t)         2740

----------
# Test: Pharmacokinetics of the metabolite produced in vivo after administration of 7.5-60 mg Compound A
# Condition Parameters: human, 45 mg, day 1 of administration of about 45 mg of Compound A
Reported Metric: Cmax (µg/mL)

> print(dat)
                                   compound  measurement
1  CC(C)(O)c1ccc(-c2cnc3c(n2)N([C@H]2CC[C@H](O)CC2)C(=O)CN3)cn1 [O-Desmethyl metabolite]         1.15

----------
# Test: Pharmacokinetics of the metabolite produced in vivo after administration of 7.5-60 mg Compound A
# Condition Parameters: human, 15 mg, on day (number not given) of once a day administration of about 15 mg of Compound A
Reported Metric: Tmax (h)

> print(dat)
                                   compound  measurement
1  CC(C)(O)c1ccc(-c2cnc3c(n2)N([C@H]2CC[C@H](O)CC2)C(=O)CN3)cn1 [O-Desmethyl metabolite]            3

----------
# Test: Phase 1 crossover pharmacokinetic study of tablet and capsule formulations, single oral dose
# Type: in vivo, human
# Condition Parameters: male, human, plasma; Treatment A: one 20-mg Compound A API-in-capsule, oral, fasted, n = 18; geometric mean; read-out: Vz/F
Reported Metric: Vd/F (L)

> print(dat)
                                   compound  measurement
1  CO[C@H]1CC[C@H](N2C(=O)CNc3ncc(-c4ccc(C(C)(C)O)nc4)nc32)CC1 [Compound A]          167

----------
half-life values for the compounds below.
# Test: Phase 1 food effect study (Part 2), single 20-mg oral dose of Compound A tablet, fed vs fasted
# Assay type: in vivo, human
# Condition Parameters: male, human, plasma, po, 20 mg, Fed (n = 11, high fat meal), single 20-mg oral dose of Compound A tablet; geometric mean
Reported Metric: half-life (h)

> print(dat)
                                   compound  measurement
1  CO[C@H]1CC[C@H](N2C(=O)CNc3ncc(-c4ccc(C(C)(C)O)nc4)nc32)CC1          5.2
2  CC(C)(O)c1ccc(-c2cnc3c(n2)N([C@H]2CC[C@H](O)CC2)C(=O)CN3)cn1 [O-Desmethyl metabolite]         14.9

----------
# Test: Pharmacokinetics of the metabolite produced in vivo after administration of 7.5-60 mg Compound A
# Condition Parameters: human, 7.5 mg, on day (number not given) of once a day administration of about 7.5 mg of Compound A
Reported Metric: AUC(0-inf) (ng·h/mL)

> print(dat)
                                   compound  measurement
1  CC(C)(O)c1ccc(-c2cnc3c(n2)N([C@H]2CC[C@H](O)CC2)C(=O)CN3)cn1 [O-Desmethyl metabolite]        45600

----------
# Test: Phase 1 food effect study (Part 2), single 20-mg oral dose of Compound A tablet, fed vs fasted
# Type: in vivo, human
# Condition Parameters: male, human, plasma, po, 20 mg, Fasted (n = 11), single 20-mg oral dose of Compound A tablet; geometric mean; read-out: Vz/F
Vd/F values for the molecules below.
Reported Metric: Vd/F

> print(dat)
                                   molecule  reported.metric  measurement
1  CC(C)(O)c1ccc(-c2cnc3c(n2)N([C@H]2CC[C@H](O)CC2)C(=O)CN3)cn1 [O-Desmethyl metabolite]             Vd/F       34.7 L
2  CO[C@H]1CC[C@H](N2C(=O)CNc3ncc(-c4ccc(C(C)(C)O)nc4)nc32)CC1             Vd/F        151 L

----------
# Test: Pharmacokinetics of the metabolite produced in vivo after administration of 7.5-60 mg Compound A
# Condition Parameters: human, 15 mg, day 1 of administration of about 15 mg of Compound A
# Method: In certain embodiments, the pharmacokinetic parameters in connection with the metabolite of Compound A produced via administration of 7.5 mg, 15 mg, 30 mg, 45 mg and 60 mg of Compound A are obtained using the protocol set forth in Section 5.2.1 (paragraphs [00497]-[00520]) of U.S. provisional application No. 61/653,436, filed May 31, 2012, which is incorporated by reference herein in its entirety. […]
Reported Metric: AUC(0-inf) (ng·h/mL)

> print(dat)
                                   molecule  reported.metric  measurement
1  CC(C)(O)c1ccc(-c2cnc3c(n2)N([C@H]2CC[C@H](O)CC2)C(=O)CN3)cn1 [O-Desmethyl metabolite]       AUC(0-inf)         5820
